# study target: T1, rat IGF-I receptor (rat, UniProt P24062 31-1370)
# T1 construct: Whole entry as named; expressed on HEK293T cells; also called IGF-I receptor of rat; NP_434694
# T1 sequence (P24062 31-1370 limits assumed): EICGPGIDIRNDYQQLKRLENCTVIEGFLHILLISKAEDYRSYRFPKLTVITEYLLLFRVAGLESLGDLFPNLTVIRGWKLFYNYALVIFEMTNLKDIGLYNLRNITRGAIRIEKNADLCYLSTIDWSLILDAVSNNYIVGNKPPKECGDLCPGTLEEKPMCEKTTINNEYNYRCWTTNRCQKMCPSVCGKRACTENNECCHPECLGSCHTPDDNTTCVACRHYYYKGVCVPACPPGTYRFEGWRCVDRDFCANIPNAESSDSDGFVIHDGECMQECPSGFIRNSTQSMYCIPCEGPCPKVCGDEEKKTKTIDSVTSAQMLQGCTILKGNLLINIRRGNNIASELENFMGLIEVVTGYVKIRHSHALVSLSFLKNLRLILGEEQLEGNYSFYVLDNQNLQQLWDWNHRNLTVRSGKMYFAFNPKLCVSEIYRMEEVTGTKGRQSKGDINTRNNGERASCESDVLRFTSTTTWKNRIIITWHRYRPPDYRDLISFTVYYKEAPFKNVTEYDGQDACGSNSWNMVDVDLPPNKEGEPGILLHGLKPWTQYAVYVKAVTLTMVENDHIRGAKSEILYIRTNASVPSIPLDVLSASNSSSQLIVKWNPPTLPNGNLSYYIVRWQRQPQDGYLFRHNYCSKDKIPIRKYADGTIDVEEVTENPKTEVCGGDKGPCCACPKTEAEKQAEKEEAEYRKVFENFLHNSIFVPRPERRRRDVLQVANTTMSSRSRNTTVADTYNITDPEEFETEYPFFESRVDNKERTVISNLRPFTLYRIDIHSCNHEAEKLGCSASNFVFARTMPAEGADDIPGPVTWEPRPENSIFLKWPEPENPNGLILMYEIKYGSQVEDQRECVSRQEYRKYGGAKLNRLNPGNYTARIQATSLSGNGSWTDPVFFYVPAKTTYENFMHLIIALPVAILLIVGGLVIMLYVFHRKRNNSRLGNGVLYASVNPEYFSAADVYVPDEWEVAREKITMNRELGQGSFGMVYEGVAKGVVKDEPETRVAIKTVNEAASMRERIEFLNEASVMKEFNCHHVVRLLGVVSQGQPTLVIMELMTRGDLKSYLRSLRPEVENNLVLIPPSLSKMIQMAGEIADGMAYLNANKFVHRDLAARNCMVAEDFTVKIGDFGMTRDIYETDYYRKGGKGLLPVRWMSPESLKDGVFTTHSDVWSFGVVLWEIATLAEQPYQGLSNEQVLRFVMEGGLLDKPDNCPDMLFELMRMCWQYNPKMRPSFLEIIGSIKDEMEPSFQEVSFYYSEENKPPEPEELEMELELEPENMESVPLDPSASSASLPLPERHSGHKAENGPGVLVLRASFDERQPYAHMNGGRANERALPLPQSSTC
# assay info: cell-based ELISA, 2 nM antibody on HEK293T cells expressing the receptor, A450-A650
Overview of reported Avidity (relative to control HEK293T cells = 1) across a group of binders:

binder	result
anti-IGF-I receptor humanized antibody R11-16B (antibody, human IgG4, V domains shown, Heavy chain constant region: human IgG4 S228P variant; Expressed in Expi293, protein A purified; also called R11-16B antibody; R11-16VH + R11-16VL-C36Y) VH: QVQLVQPGAELVKPGASVKVSCKAPGYTFTSYWMHWVRQAPGQGLEWIGETNPSNSVTNYNEKFKSKATLTVDTSTSTVYMELSSLRSEDTAVYYCTIGRGRGFAYWGQGTLVTVSS VL: DIQMTQSPSSLSASVGDRVTITCRASQNINFWLSWYQQKPGKAPKLLIYKASNLHTGVPSRFSGSGSGTDFTFTISSLQPEDIATYYCLQGQSYPYTFGQGTKLEIK	0.8 fold of control cells

The reported Avidity (relative to control HEK293T cells = 1) of the binder anti-IGF-I receptor humanized antibody R11-16F (antibody, human IgG4, V domains shown, also called R11-16F antibody; R11-16VH + R11-16VL-C36) VH: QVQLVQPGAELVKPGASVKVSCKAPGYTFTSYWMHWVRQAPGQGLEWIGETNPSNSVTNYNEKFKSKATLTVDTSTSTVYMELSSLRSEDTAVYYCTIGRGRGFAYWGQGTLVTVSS VL: DIQMTQSPSSLSASVGDRVTITCRASQNINFWLSWCQQKPGKAPKLLIYKASNLHTGVPSRFSGSGSGTDFTFTISSLQPEDIATYYCLQGQSYPYTFGQGTKLEIK was 0.9 fold of control cells
